test: Chemical stability assessed as half life of hydrolysis in at pH 14; format: physicochemical; settings: 1.0 M NaOH
test readout: log10 of t1/2 (log10 of the value in min)

- CCN(CC)/[N+]([O-])=N/O[C@@H]1O[C@@H](C)[C@@H](O)[C@@H](O)[C@@H]1O: 0.60
- CCN(CC)/[N+]([O-])=N/O[C@@H]1O[C@H](CO)[C@@H](O)[C@H](O)[C@H]1O: 0.32
- CCN(CC)/[N+]([O-])=N/O[C@@H]1O[C@H](CO)[C@@H](O)[C@H](O)[C@H]1NC(C)=O: 1.71
- CCN(CC)/[N+]([O-])=N/O[C@H]1O[C@H](CO)[C@@H](O)[C@H](O)[C@@H]1O: 2.47
- CCN(CC)/[N+]([O-])=N/O[C@H]1C[C@@H](O)[C@H](O)[C@@H](CO)O1: 1.36

----------
// reported t1/2 per item
test: Chemical stability assessed as half life of hydrolysis in 0.1 M phosphate buffer at pH 7.4; assay type: physicochemical
test readout: t1/2

* CCN(CC)/[N+]([O-])=N/O[C@@H]1O[C@@H](C)[C@@H](O)[C@@H](O)[C@@H]1O | > 10 days
* CCN(CC)/[N+]([O-])=N/O[C@H]1O[C@H](CO)[C@@H](O)[C@H](O)[C@@H]1O | > 10 days
* CCN(CC)/[N+]([O-])=N/O[C@@H]1O[C@H](CO)[C@@H](O)[C@H](O)[C@H]1NC(C)=O | 0.5 days
* CCN(CC)/[N+]([O-])=N/O[C@H]1C[C@@H](O)[C@H](O)[C@@H](CO)O1 | 0.5 days
* CC(=O)N[C@H]1[C@H](O/N=[N+](\[O-])N2CCCC2)O[C@H](CO)[C@@H](O)[C@@H]1O | > 10 days

----------
experiment: Stability assessed as nitrite release in presence of Jack bean N-acetyl-glucosaminidase measured per mole of glycoside in 0.1 M phosphate buffer at pH 7.4 at 0.16 mM by Griess reagent assay; format: ADME; conditions: pH 7.4, 160 µM
test readout: Activity (mol/mol)

• CC(=O)N[C@H]1[C@H](O/N=[N+](\[O-])N2CCCC2)O[C@H](CO)[C@@H](O)[C@@H]1O = 0.12

----------
assay: Stability assessed as nitrite release in presence of Jack bean N-acetyl-glucosaminidase measured per mole of glycoside in 0.1 M phosphate buffer at pH 7.4 at 0.10 mM by Griess reagent assay; format: ADME; settings: pH 7.4, 100 µM
test readout: Activity (mol/mol)

* CCN(CC)/[N+]([O-])=N/O[C@@H]1O[C@H](CO)[C@@H](O)[C@H](O)[C@H]1NC(C)=O | 0.05

----------
assay: Stability assessed as nitric oxide release in presence of human placenta N-acetyl-glucosaminidase measured per mole of glycoside in 0.1 M phosphate buffer at pH 7.4 at 0.10 mM […]; type: ADME; conditions: pH 7.4, 100 µM
test readout: Activity (mol/mol)

* CCN(CC)/[N+]([O-])=N/O[C@@H]1O[C@H](CO)[C@@H](O)[C@H](O)[C@H]1NC(C)=O | 1.73

----------
assay: Stability assessed as nitrite release in presence of human placenta N-acetyl-glucosaminidase measured per mole of glycoside in 0.1 M phosphate buffer at pH 7.4 at 0.16 mM by Griess reagent assay; format: ADME; conditions: pH 7.4, 160 µM
test readout: Activity

* CC(=O)N[C@H]1[C@H](O/N=[N+](\[O-])N2CCCC2)O[C@H](CO)[C@@H](O)[C@@H]1O | 0.36 mol/mol

----------
test: Stability assessed as nitric oxide release in presence of Jack bean N-acetyl-glucosaminidase measured per mole of glycoside in 0.1 M phosphate buffer at pH 7.4 at 0.16 mM […]; format: ADME; settings: pH 7.4, 160 µM
test readout: Activity

- CC(=O)N[C@H]1[C@H](O/N=[N+](\[O-])N2CCCC2)O[C@H](CO)[C@@H](O)[C@@H]1O: 1.72 mol/mol

----------
assay: Stability assessed as nitrite release in presence of human placenta N-acetyl-glucosaminidase measured per mole of glycoside in 0.1 M phosphate buffer at pH 7.4 at 0.10 mM by Griess reagent assay; assay type: ADME; conditions: pH 7.4, 100 µM
test readout: Activity (mol/mol)

* CCN(CC)/[N+]([O-])=N/O[C@@H]1O[C@H](CO)[C@@H](O)[C@H](O)[C@H]1NC(C)=O | 0.24
